Each recorded value in this set is attributed to patent US11179391B2.

The following molecules are shown together with reported pIC50 values.
- Assayed system: CDK9/cyclinTl (Homo sapiens, UniProt P50750)
- Sequence (P50750 whole entry): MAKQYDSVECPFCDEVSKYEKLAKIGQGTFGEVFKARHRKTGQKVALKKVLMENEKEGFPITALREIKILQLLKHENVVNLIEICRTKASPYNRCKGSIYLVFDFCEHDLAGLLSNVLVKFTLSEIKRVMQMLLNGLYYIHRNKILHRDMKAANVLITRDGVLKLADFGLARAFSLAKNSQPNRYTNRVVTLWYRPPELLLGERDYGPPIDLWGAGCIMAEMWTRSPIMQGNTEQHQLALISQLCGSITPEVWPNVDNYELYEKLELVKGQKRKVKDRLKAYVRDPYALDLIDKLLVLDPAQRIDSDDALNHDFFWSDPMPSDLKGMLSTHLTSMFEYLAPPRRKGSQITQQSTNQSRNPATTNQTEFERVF
- Sequence (O60563 whole entry partner): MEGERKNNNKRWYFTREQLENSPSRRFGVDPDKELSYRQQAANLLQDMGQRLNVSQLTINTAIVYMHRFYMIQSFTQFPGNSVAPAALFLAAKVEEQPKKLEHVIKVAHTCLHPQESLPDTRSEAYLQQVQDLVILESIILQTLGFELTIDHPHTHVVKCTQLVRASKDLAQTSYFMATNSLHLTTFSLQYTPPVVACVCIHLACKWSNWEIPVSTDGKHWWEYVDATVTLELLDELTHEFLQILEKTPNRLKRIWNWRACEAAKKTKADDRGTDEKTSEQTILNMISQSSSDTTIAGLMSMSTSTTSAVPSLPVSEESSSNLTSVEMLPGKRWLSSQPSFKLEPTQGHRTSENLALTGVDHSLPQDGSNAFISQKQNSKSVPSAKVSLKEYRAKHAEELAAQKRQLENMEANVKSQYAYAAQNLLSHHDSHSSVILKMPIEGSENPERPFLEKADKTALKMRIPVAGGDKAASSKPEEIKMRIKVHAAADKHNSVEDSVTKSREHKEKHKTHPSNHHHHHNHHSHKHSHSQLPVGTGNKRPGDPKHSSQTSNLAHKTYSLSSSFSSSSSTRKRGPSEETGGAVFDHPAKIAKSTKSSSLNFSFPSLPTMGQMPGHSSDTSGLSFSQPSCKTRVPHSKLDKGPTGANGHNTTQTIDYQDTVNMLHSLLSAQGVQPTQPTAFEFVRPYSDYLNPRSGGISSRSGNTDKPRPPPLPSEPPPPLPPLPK
- Test description: Determination of CDK activity (Caliper mobility shift, FAM-P8 peptide): CDK9
- Format: biochemical
- Measurement conditions: CDK9/cyclinTl; read-out: CDK9 enzymatic inhibitory activity (IC50)
pIC50: −log10 of the molar value.

{"columns": ["Molecule", "Assayed system", "pIC50"],
 "data": [
  ["CCN1CCC([C@@H](OC)c2ccc(Nc3ncc(F)c(-c4cc(F)c5nc(C)n(C(C)C)c5c4)n3)nc2)CC1 [Example 45]", "CDK9/cyclinTl (Homo sapiens, UniProt P50750)", "6.30 to 7.00"],
  ["Cc1nc2c(F)cc(-c3nc(Nc4ccc([C@H](C)C5CCN(C)CC5)cn4)ncc3F)cc2n1C(C)C (single isomer, unassigned) [Example 21]", "CDK9/cyclinTl (Homo sapiens, UniProt P50750)", "6.30 to 7.00"],
  ["CCN1CCC(C(C)c2ccc(Nc3ncc(F)c(-c4cc(F)c5nc(C)n(C(C)C)c5c4)n3)nc2)CC1 (racemic) [Example 16]", "CDK9/cyclinTl (Homo sapiens, UniProt P50750)", "6.30 to 7.00"],
  ["Cc1nc2c(F)cc(-c3nc(Nc4ccc([C@H](C)C5CCN(C(C)C)CC5)cn4)ncc3F)cc2n1C(C)C (single isomer, unassigned) [Example 73]", "CDK9/cyclinTl (Homo sapiens, UniProt P50750)", "6.00 to 6.30"],
  ["Cc1nc2c(F)cc(-c3nc(Nc4ccc([C@@H](C)C5CCN(CC(F)(F)F)CC5)cn4)ncc3F)cc2n1C(C)C [Example 86]", "CDK9/cyclinTl (Homo sapiens, UniProt P50750)", "6.30 to 7.00"],
  ["Cc1nc2c(F)cc(-c3nc(Nc4ccc([C@@H](C)C5CCN(C)CC5)cn4)ncc3F)cc2n1C(C)C (single isomer, unassigned) [Example 22]", "CDK9/cyclinTl (Homo sapiens, UniProt P50750)", "6.00 to 6.30"]
]}

query: Determine from records and report pIC50 for COCCN1CCC([C@@H](C)c2ccc(Nc3ncc(F)c(-c4cc(F)c5nc(C)n(C(C)C)c5c4)n3)nc2)CC1 (single isomer, unassigned) [Example 79]
result: 6.30 to 7.00
